Could you please report measured PBM binding z-score for the items listed next?
- System: PPARg:RXRa 270nM:90nM, anti-RXR (NR concentration 270 nM, RXRa partner concentration 90 nM)
- Experiment summary: PBM binding z-score (relative to random genomic background probes); higher = stronger binding; sequences stand for … in GC…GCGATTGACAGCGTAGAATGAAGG

Measured PBM binding z-score of `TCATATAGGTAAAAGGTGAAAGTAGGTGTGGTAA` : 8.72

// PBM binding z-score value for `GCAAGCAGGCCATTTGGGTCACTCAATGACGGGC` : 0.661

Entry `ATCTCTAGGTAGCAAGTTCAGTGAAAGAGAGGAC` — recorded PBM binding z-score = 0.887

Lab book: PBM binding z-score of `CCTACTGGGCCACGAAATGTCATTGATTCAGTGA` noted as 1.24

Just so you know, measured PBM binding z-score for `TCATATAGGTAATACAAGTGAAAGTCGGCATCTA` came out at 2.52

Entry `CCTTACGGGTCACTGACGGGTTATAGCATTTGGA` , PBM binding z-score reported as 4.28

Notebook: `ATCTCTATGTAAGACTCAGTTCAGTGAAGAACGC` , PBM binding z-score read as -0.0831

The measured PBM binding z-score associated with `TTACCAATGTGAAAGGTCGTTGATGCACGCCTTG` reads 5.96

// field: PBM binding z-score; key: `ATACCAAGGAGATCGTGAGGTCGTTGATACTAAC` ; value = -0.542

// PBM binding z-score lookup, sequence = `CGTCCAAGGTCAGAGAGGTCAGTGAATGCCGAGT` , result: 4.41

Data point: `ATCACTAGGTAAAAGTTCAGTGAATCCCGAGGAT` ; PBM binding z-score = 8.67

Entry `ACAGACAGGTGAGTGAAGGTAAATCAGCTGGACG` ; PBM binding z-score = -0.481

For `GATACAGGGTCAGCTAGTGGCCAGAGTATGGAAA` the sequence record lists PBM binding z-score as 3.25

Notebook: `CGTCCAAGGACAGAGAGGTCAGTGAATGCCGAGT` , PBM binding z-score read as 0.665

response.value for `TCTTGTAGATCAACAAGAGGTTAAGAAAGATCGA` (field: PBM binding z-score) = 1.19

Per the record, `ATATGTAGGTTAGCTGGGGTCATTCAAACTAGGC` has PBM binding z-score of 5.36

Lookup result for `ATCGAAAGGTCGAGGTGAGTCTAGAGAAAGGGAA` ; measured PBM binding z-score: 3.62

Lab note: measured PBM binding z-score of `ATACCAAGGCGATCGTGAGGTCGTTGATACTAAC` was -0.337

According to the records, this sequence `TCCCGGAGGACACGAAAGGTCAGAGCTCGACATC` displays PBM binding z-score of 2.59

Summary for this sequence, `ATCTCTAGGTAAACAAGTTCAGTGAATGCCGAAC` : PBM binding z-score is 0.774

Looking up `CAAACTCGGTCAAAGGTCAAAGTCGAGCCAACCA` , I see its PBM binding z-score listed as 10.9

Briefly, PBM binding z-score measured for `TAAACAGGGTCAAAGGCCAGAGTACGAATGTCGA` : 8.05

Entry under test: `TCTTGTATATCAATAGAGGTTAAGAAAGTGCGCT` . Its PBM binding z-score was 1.69

PBM binding z-score reported for this sequence `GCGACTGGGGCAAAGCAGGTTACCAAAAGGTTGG` : 1.55

Briefly, PBM binding z-score measured for `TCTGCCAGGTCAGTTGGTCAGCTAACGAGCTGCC` : 1.28

Form: sequence = `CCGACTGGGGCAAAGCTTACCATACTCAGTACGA` ; PBM binding z-score = 2.52
